Tested on: CASK
test.parameters: concentration: 1 μM,replicates: in singlicate; n = 1;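 also: KINOMEscan kinase panel screen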
Collected %Inh values appear next to each entry.
recorded.endpoint: %Inh (%)

NC(=O)c1cc(-c2ccccc2)cc2c(C3CCNCC3)c[nH]c12    18
Cc1cc2cn[nH]c2cc1-c1cccc2c(N)c(C(N)=O)nnc12    23
CCn1c(-c2nonc2N)nc2c(C#CC(C)(C)O)nc(OCCN)cc21.Cl.Cl    31
Nc1nc(Nc2ccccc2)cc(-c2ccc3c(N)n[nH]c3c2)n1    0
CC(C)N1C(=O)Cc2cc(Nc3ncc(C(F)(F)F)c(NCc4cccc(S(C)(=O)=O)c4)n3)ccc21    0

====

Tested on: PKMYT1
test.parameters: concentration: 1 μM,replicates: in singlicate; n = 1
Each item that follows carries a reported %Inh.
recorded.endpoint: %Inh

O=C(NCCNc1ccnc(NCc2ccc(F)cc2)n1)c1cc2ccccc2s1    74%
CCN(CC)CCOc1ccc(Nc2ncc3cc(-c4c(Cl)cccc4Cl)c(=O)n(C)c3n2)cc1    98.6%
Cc1ccc2c(-c3ccncc3)c(-c3ccc(F)cc3)nn2c1.Cl    0%
Cl.Oc1cc(-c2nc(-c3ccccc3)[nH]c2-c2ccncc2)ccc1Cl    0%
NC(=O)c1cc(-c2ccccc2)cc2c(C3CCNCC3)c[nH]c12    17%
Cc1cc(C(=O)Nc2ccc(Oc3ccc4nc(NC(=O)C5CC5)cn4n3)cc2)nn1-c1ccccc1    0%
Cl.Cl.Nc1nc(-c2ccc3c(N)n[nH]c3c2)cc(N2CCCC(NC(=O)c3ccccc3)C2)n1 (centres unmarked)    5%
CC(C)N1C(=O)Cc2cc(Nc3ncc(C(F)(F)F)c(NCc4cccc(S(C)(=O)=O)c4)n3)ccc21    15%

====

Test system: PIK3CD
test.parameters: concentration: 1 μM,replicates: in singlicate; n = 1
// NB: equality with 2% counts as criterion not met; only %Inh strictly below is criterion met

Cc1ccc(-n2nc(C(C)(C)C)cc2NC(=O)Nc2ccc(OCCN3CCOCC3)c3ccccc23)cc1    criterion met
Cc1cc(C(=O)Nc2ccc(Oc3ccc4nc(NC(=O)C5CC5)cn4n3)cc2)nn1-c1ccccc1    criterion met
Cl.Cl.NC[C@H](CC1CCCCC1)NC(=O)c1cc(Br)c(-c2ccnc3[nH]ccc23)s1    criterion met
NC(=O)c1cc(-c2ccccc2)cc2c(C3CCNCC3)c[nH]c12    criterion not met
Cc1n[nH]c2ccc(-c3cc(OC[C@@H](N)Cc4ccccc4)cnc3-c3ccoc3)cc12.O=C(O)C(F)(F)F.O=C(O)C(F)(F)F    criterion met
Nc1nc(Nc2ccccc2)cc(-c2ccc3c(N)n[nH]c3c2)n1    criterion not met
Cc1cc2cn[nH]c2cc1-c1cccc2c(N)c(C(N)=O)nnc12    criterion not met
CC(C)N1C(=O)Cc2cc(Nc3ncc(C(F)(F)F)c(NCc4cccc(S(C)(=O)=O)c4)n3)ccc21    criterion met
Cl.Oc1cc(-c2nc(-c3ccccc3)[nH]c2-c2ccncc2)ccc1Cl    criterion met
O=C(NCCNc1ccnc(NCc2ccc(F)cc2)n1)c1cc2ccccc2s1    criterion met
C[C@@H](Oc1cc(-c2cnn(C3CCNCC3)c2)cnc1N)c1c(Cl)ccc(F)c1Cl    criterion met
Cc1ccc2c(-c3ccncc3)c(-c3ccc(F)cc3)nn2c1.Cl    criterion met
C[C@@H]1CCN(C(=O)CC#N)C[C@@H]1N(C)c1ncnc2[nH]ccc12    criterion met
C[C@H]1Oc2cc(cnc2N)-c2c(nn(C)c2C#N)CN(C)C(=O)c2ccc(F)cc21    criterion met
CNC(=O)c1ccccc1Sc1ccc2c(/C=C/c3ccccn3)n[nH]c2c1    criterion not met
C=CC(=O)Nc1cc2c(Nc3ccc(F)c(Cl)c3)ncnc2cc1OCCCN1CCOCC1    criterion met

====

Tested on: NEK3
test.parameters: concentration: 1 μM,replicates: in singlicate; n = 1
Threshold check on %Inh: at or above 7% gives TRUE, strictly below gives FALSE.

Cl.Oc1cc(-c2nc(-c3ccccc3)[nH]c2-c2ccncc2)ccc1Cl    FALSE
Cl.Cl.NC[C@H](Cc1ccc(C(F)(F)F)cc1)NC(=O)c1cc(Br)c(-c2ccnc3[nH]ccc23)s1    TRUE
CC(C)Nc1cc(-c2ccc3c(N)n[nH]c3c2)nc(N)n1    FALSE
Nc1nc(Nc2ccccc2)cc(-c2ccc3c(N)n[nH]c3c2)n1    FALSE
C[C@@H]1CCN(C(=O)CC#N)C[C@@H]1N(C)c1ncnc2[nH]ccc12    TRUE
CN(C)CC(O)COc1ccc(Nc2nccc(-c3cnn4nc(N5CCOCC5)ccc34)n2)cc1 (stereo not drawn)    TRUE
C=CC(=O)Nc1cc2c(Nc3ccc(F)c(Cl)c3)ncnc2cc1OCCCN1CCOCC1    TRUE
Cc1cc2cn[nH]c2cc1-c1cccc2c(N)c(C(N)=O)nnc12    TRUE

====

Test system: ROCK2
test.parameters: concentration: 1 μM,replicates: in singlicate; n = 1
hey, just use True if measured %Inh is less than 40%, otherwise False

C[C@@H](Oc1cc(-c2cnn(C3CCNCC3)c2)cnc1N)c1c(Cl)ccc(F)c1Cl    True
Cl.Cl.NC[C@H](Cc1ccc(C(F)(F)F)cc1)NC(=O)c1cc(Br)c(-c2ccnc3[nH]ccc23)s1    False
O=C(NCCNc1ccnc(NCc2ccc(F)cc2)n1)c1cc2ccccc2s1    True
Nc1nc(Nc2ccccc2)cc(-c2ccc3c(N)n[nH]c3c2)n1    False
Cl.Cl.NC[C@H](CC1CCCCC1)NC(=O)c1cc(Br)c(-c2ccnc3[nH]ccc23)s1    False
Cl.Cl.Nc1nc(-c2ccc3c(N)n[nH]c3c2)cc(N2CCCC(NC(=O)c3ccccc3)C2)n1 (centres unmarked)    True
C[C@H]1Oc2cc(cnc2N)-c2c(nn(C)c2C#N)CN(C)C(=O)c2ccc(F)cc21    True

====

System: EGFR
test.parameters: concentration: 1 μM,replicates: in singlicate; n = 1
Consider the cut-off 20%. If the recorded %Inh is strictly smaller, the label is met; if not, the label is not met.

C[C@H]1Oc2cc(cnc2N)-c2c(nn(C)c2C#N)CN(C)C(=O)c2ccc(F)cc21    met
Cc1cc(C(=O)Nc2ccc(Oc3ccc4nc(NC(=O)C5CC5)cn4n3)cc2)nn1-c1ccccc1    met
Cc1ccc(-n2nc(C(C)(C)C)cc2NC(=O)Nc2ccc(OCCN3CCOCC3)c3ccccc23)cc1 [GW839464]    not met
Cl.Cl.NC[C@H](CC1CCCCC1)NC(=O)c1cc(Br)c(-c2ccnc3[nH]ccc23)s1 [GSK1581427]    not met
Cc1ccc2c(-c3ccncc3)c(-c3ccc(F)cc3)nn2c1.Cl [GW461484]    not met
CN(C)CC(O)COc1ccc(Nc2nccc(-c3cnn4nc(N5CCOCC5)ccc34)n2)cc1 (stereo not drawn) [GW767488]    met
Nc1nc(Nc2ccccc2)cc(-c2ccc3c(N)n[nH]c3c2)n1 [GSK2225749]    met
Cc1cc2cn[nH]c2cc1-c1cccc2c(N)c(C(N)=O)nnc12    not met

====

System: PIP5K2C
Construct: gene PIP4K2C
test.parameters: concentration: 1 μM,replicates: in singlicate; n = 1
The reader will find reported %Inh values listed item by item below.
recorded.endpoint: %Inh (%)

CCn1c(-c2nonc2N)nc2c(C#CC(C)(C)O)nc(OCCN)cc21.Cl.Cl    13
CN(C)CCOc1ccc(-c2cc(-c3c[nH]nc3-c3ccccn3)ccn2)cc1    8
O=C(NCCCN1CCOC1=O)c1cnc(NCc2cc(Cl)ccc2Cl)nc1NC1CCCC1    7
Cl.Cl.NC[C@H](Cc1ccc(C(F)(F)F)cc1)NC(=O)c1cc(Br)c(-c2ccnc3[nH]ccc23)s1    3

====

Test system: SLK
test.parameters: concentration: 1 μM,replicates: in singlicate; n = 1
Rule: %Inh under 5% gives not fulfilled, otherwise fulfilled.

Cc1ccc2c(-c3ccncc3)c(-c3ccc(F)cc3)nn2c1.Cl [GW461484]    not fulfilled
CN(C)CCOc1ccc(-c2cc(-c3c[nH]nc3-c3ccccn3)ccn2)cc1 [GW835314]    fulfilled
COc1ccc(C[C@@H](CN)NC(=O)c2cc(Br)c(-c3ccnc4[nH]ccc34)s2)cc1.Cl.Cl [GSK1389063]    fulfilled
CC(C)N1C(=O)Cc2cc(Nc3ncc(C(F)(F)F)c(NCc4cccc(S(C)(=O)=O)c4)n3)ccc21    fulfilled
CCN(CC)CCOc1ccc(Nc2ncc3cc(-c4c(Cl)cccc4Cl)c(=O)n(C)c3n2)cc1 [SB-601273]    fulfilled
Cl.Oc1cc(-c2nc(-c3ccccc3)[nH]c2-c2ccncc2)ccc1Cl [SB-386023]    fulfilled
CC(C)Nc1cc(-c2ccc3c(N)n[nH]c3c2)nc(N)n1 [GSK2221681]    not fulfilled
Cl.Cl.Nc1nc(-c2ccc3c(N)n[nH]c3c2)cc(N2CCCC(NC(=O)c3ccccc3)C2)n1 (stereo not shown) [GSK2286775]    not fulfilled
CNC(=O)c1ccccc1Sc1ccc2c(/C=C/c3ccccn3)n[nH]c2c1    fulfilled
